Test system: influenza virus (PR/8/34 (H1N1))
Assay type: cell-based
APPLIED CONDITIONS: with 6-methylmercaptopurine 10 μM; Vero cells, 2 days; read-out: The 50% CPE inhibitory concentration of T-705
MEASUREMENT TYPE: pIC50
Remember the convention: pIC50 equals -log10 of concentration in molar.

Look at this molecule and give its reported pIC50. NC(=O)c1nc(F)cnc1O [T-705] 4.69
